Provenance of the data: the RNAGym collection of RNA variant scans (doi:10.7554/elife.90254)

What self-cleavage was measured for each of the following?
B1: LINE1-full (parent)
chain: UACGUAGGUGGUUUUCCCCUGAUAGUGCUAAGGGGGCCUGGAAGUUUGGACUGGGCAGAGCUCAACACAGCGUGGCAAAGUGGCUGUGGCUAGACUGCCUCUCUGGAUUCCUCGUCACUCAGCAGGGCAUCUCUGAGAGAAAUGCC

variants of: B1; assay: self-cleavage, relative activity (ratio to wild type); higher = more cleavage; in vitro, sequencing; the parent is a self-cleaving ribozyme
Numbers only.

Need self-cleavage for each of these variants.
1. U26G U85C
2. G82A U132C

### Response
1. 0.14
2. 2.22

Need self-cleavage for each of these variants.
1. U12A A121G
2. A6U U81C
3. U23G U46A
4. U13C A138U

### Response
1.43
1.06
1.3
1.31
